Species: Rattus norvegicus
Assay protocol: DrugMatrix - Regimen: Daily Repeat
Type: toxicity, organism-based, Sprague-Dawley
Parameters: regimen Daily Repeat, gender Male, age 6-8 weeks
Condition set: in vivo, po, 0 mg/kg, 72 h, tissue Blood, route oral GAVAGE, dose level Control, time 3 day, vehicle 100 % WATER
PLATELET COUNT values for the compounds below.
Numeric answer only, unit x10E3/uL assumed.

Some entries whose results are on file:
                             compound  unit_string  obs_value
0          C[N+](C)(C)CCOC(N)=O.[Cl-]     x10E3/uL    1022.83
1      CCC1(c2ccccc2)C(=O)NC(=O)NC1=O     x10E3/uL        858
2                      NN [HYDRAZINE]     x10E3/uL     1193.5
3          CCN(CC)C(=S)SSC(=S)N(CC)CC     x10E3/uL    1246.17
4  Cc1cc(C(C)(C)C)c(O)c(C)c1CC1=NCCN1     x10E3/uL    1142.83

State the recorded PLATELET COUNT for this entry: C1CCN2C[C@@H]3C[C@@H](CN4CCCC[C@@H]34)[C@H]2C1
1181.33

Lookup CN1C(=O)OC(C)(C)C1=O
911.5

Follow-up entry: Cc1cn([C@H]2C=C[C@@H](CO)O2)c(=O)[nH]c1=O
1022.83

Then CC(Cl)(Cl)Cl ?
1181.33
